- SUBJECT_OF_TEST: RORγ-LBD (RORγt) (Homo sapiens, UniProt P51449)
- Construct: the 6-His-(GST) RORγ-LBD was used which expressed and purified from baculovirus infected Sf-21 insect cells; made in house; host or cells: baculovirus-infected Sf-21 insect cells
- Sequence (P51449 269-508 limits assumed): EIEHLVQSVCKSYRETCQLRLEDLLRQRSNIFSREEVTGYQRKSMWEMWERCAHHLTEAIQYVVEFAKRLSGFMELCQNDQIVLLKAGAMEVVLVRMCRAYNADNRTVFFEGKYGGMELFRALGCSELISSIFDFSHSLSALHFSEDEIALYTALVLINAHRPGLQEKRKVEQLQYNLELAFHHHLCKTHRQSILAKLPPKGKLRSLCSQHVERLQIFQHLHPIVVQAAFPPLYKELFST
- ASSAY_COMMENT: TR-FRET RORγt Binding Assay
- CONDITION_DETAILS: 6-His(GST)RORγ-LBD, SRC1_2 peptide, read-out: RORγt Binding
This section presents molecules with their documented IC50 values.

For orientation, consider the following solved cases.
>  <MOLECULE>
COc1cc2c(cc1N1CCOCC1)CC(Cc1ccc(C(F)(F)F)cc1)C2=O (centres unmarked)

>  <RESULT>
> 1000 nM

$$$$
>  <MOLECULE>
COc1ccc2c(c1OC)CC(Cc1ccc(SC(F)(F)F)cc1)C2=O (centres unmarked)

>  <RESULT>
> 1000 nM

$$$$
>  <MOLECULE>
COc1cc2c(cc1N1CCN(C)CC1)CC(Cc1ccc(SC(F)(F)F)cc1)C2=O (centres unmarked)

>  <RESULT>
< 500 nM

$$$$
>  <MOLECULE>
COc1cc2c(cc1N1CCOCC1)CC(Cc1ccc(C(F)(F)F)nc1)C2=O (centres unmarked) [compound 83]

>  <RESULT>
> 1000 nM

$$$$

Measured IC50, COc1cc2c(cc1N1CCOCC1)CC(Cc1cncc(C(O)(C(F)(F)F)C(F)(F)F)c1)C2=O (centres unmarked) [compound 245] : > 1000 nM

Measured IC50, COc1cc2c(cc1N1CCN(C)CC1)CC(Cc1ncccc1C(F)(F)F)C2=O (centres unmarked) [compound 250] : > 1000 nM

====

This section presents compounds with their documented IC50 values.
- SUBJECT_OF_TEST: RORγt (Homo sapiens, UniProt P51449)
- Construct: host or cells: IL-17A Prom/LUCPorter HEK 293 cell line (IMGENEX, IML-301)
- Sequence (P51449 1-497 isoform P51449-2): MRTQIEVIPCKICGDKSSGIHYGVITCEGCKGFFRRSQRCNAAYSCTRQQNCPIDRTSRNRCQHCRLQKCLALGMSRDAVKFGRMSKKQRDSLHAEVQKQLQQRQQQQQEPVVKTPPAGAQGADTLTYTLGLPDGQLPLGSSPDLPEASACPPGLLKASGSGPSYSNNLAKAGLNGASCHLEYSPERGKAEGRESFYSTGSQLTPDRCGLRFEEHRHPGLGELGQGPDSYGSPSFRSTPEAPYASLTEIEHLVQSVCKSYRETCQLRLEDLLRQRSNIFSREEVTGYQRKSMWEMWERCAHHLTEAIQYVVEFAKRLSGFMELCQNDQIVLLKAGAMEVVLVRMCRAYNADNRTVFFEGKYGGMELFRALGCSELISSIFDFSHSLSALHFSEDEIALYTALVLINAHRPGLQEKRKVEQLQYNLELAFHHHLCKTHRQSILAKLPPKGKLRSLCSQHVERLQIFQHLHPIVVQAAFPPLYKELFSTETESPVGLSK
- ASSAY_COMMENT: RORγt-activated IL-17A Prom/LUCPorter HEK 293 cells luciferase reporter assay
- Format: cell-based
- CONDITION_DETAILS: IL-17A Prom/LUCPorter HEK 293 cells transfected with RORγt, 16 h; read-out: RORγt Cell Specific

>  <COMPOUND>
COc1cc2c(cc1N1CCN(C)CC1)CC(Cc1cc(C(F)(F)F)ccc1Cl)C2=O (stereo not shown)

>  <SUBJECT_OF_TEST>
RORγt (Homo sapiens, UniProt P51449)

>  <RESULT>
< 500 nM

$$$$
>  <COMPOUND>
COc1cc2c(cc1O)C(=O)C(Cc1ccc(SC(F)(F)F)cc1)C2 (stereo not shown)

>  <SUBJECT_OF_TEST>
RORγt (Homo sapiens, UniProt P51449)

>  <RESULT>
> 1000 nM

$$$$
>  <COMPOUND>
COc1cc2c(cc1N1CCOCC1)CC(Cc1c(F)ccc(C(O)(C(F)(F)F)C(F)(F)F)c1F)C2=O (stereo not shown)

>  <SUBJECT_OF_TEST>
RORγt (Homo sapiens, UniProt P51449)

>  <RESULT>
< 500 nM

$$$$

# ---- query compound ----
Measured IC50, COc1cc2c(c(N3CCOCC3)c1OC)CC(Cc1ncccc1C(F)(F)F)C2=O (stereo not shown) : > 1000 nM

====

- SUBJECT_OF_TEST: RORγ-LBD (RORγt) (Homo sapiens)
- Construct: the 6-His-(GST) RORγ-LBD was used which expressed and purified from baculovirus infected Sf-21 insect cells; made in house; host or cells: baculovirus-infected Sf-21 insect cells
- ASSAY_COMMENT: TR-FRET RORγt Binding Assay
- CONDITION_DETAILS: 6-His(GST)RORγ-LBD, SRC1_2 peptide, read-out: RORγt Binding
pIC50: −log10 of the molar value.
MEASURE_NAME: pIC50

For orientation, consider the following solved cases.
>  <MOLECULE>
COc1cc2c(cc1N1CCOCC1)CC(Cc1cccc(C(F)(F)F)c1F)C2=O (centres unmarked) [compound 80]

>  <pIC50>
< 6.00

$$$$
>  <MOLECULE>
COc1cc2c(cc1O)C(=O)C(Cc1ccc(SC(F)(F)F)cc1)C2 (centres unmarked) [compound 187]

>  <pIC50>
< 6.00

$$$$

Fill in: RORγ-LBD (RORγt) (Homo sapiens) pIC50 for COc1cc2c(cc1N1CCOCC1)CC(Cc1ncc(C(O)(C(F)(F)F)C(F)(F)F)cc1C(F)(F)F)C2=O (centres unmarked) [compound 268] = > 6.30

Fill in: RORγ-LBD (RORγt) (Homo sapiens) pIC50 for COc1cc2c(c(N3CCOCC3)c1OC)CC(Cc1ncccc1C(F)(F)F)C2=O (centres unmarked) [compound 123] = < 6.00

Fill in: RORγ-LBD (RORγt) (Homo sapiens) pIC50 for COc1cc2c(cc1N1CCC(C)CC1)CC(Cc1ncccc1C(F)(F)F)C2=O (centres unmarked) [compound 142] = < 6.00

Fill in: RORγ-LBD (RORγt) (Homo sapiens) pIC50 for COc1cc2c(cc1N1CCOCC1)CC(Cc1ccc(C(F)(F)F)nc1)C2=O (centres unmarked) [compound 71] = < 5.00

Fill in: RORγ-LBD (RORγt) (Homo sapiens) pIC50 for COc1cc2c(c(N3CCN(C)CC3)c1OC)CC(Cc1ccc(SC(F)(F)F)cc1)C2=O (centres unmarked) [compound 125] = < 6.00

Fill in: RORγ-LBD (RORγt) (Homo sapiens) pIC50 for COc1cc2c(cc1N1CCOCC1)CC(Cc1ncccc1C(F)(F)F)C2=O (centres unmarked) [compound 68] = > 6.30

====

- SUBJECT_OF_TEST: RORγt (Homo sapiens)
- Construct: host or cells: IL-17A Prom/LUCPorter HEK 293 cell line (IMGENEX, IML-301)
- Sequence (P51449 1-497 isoform P51449-2): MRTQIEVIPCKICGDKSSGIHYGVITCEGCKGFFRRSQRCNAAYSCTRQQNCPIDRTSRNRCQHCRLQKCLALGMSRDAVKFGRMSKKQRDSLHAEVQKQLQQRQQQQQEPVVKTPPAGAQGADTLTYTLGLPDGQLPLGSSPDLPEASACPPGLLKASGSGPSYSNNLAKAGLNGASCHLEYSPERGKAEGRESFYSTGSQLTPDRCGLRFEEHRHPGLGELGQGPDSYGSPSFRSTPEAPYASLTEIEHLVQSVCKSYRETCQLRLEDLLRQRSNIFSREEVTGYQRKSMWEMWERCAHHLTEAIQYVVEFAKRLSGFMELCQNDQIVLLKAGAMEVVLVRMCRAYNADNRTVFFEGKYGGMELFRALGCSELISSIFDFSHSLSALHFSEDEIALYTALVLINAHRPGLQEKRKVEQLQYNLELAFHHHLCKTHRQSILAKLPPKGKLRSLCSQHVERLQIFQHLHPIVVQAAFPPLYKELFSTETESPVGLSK
- ASSAY_COMMENT: RORγt-activated IL-17A Prom/LUCPorter HEK 293 cells luciferase reporter assay
- Format: cell-based
- CONDITION_DETAILS: IL-17A Prom/LUCPorter HEK 293 cells transfected with RORγt, 16 h; read-out: RORγt Cell Specific
- Method: Antagonistic (or inverse agonistic) effects of the test compounds on the RORγt-activated IL-17A Prom/LUCPorter™ HEK 293 cells were analyzed and IC50 of each compound was evaluated. […] Luciferase activity was analyzed using the luciferase reporter assay reagent (IMGENEX, LS100). The data were analyzed using Excel and Prism software. […]
MEASURE_NAME: IC50

For orientation, consider the following solved cases.
>  <MOLECULE>
COc1cc2c(cc1-c1ccc(OC(F)(F)F)cc1F)CC(Cc1ncccc1C(F)(F)F)C2=O (centres unmarked)

>  <IC50>
> 1000 nM

$$$$
>  <MOLECULE>
COc1cc2c(cc1N1CCOCC1)CC(Cc1ccc(C(F)(F)F)nc1)C2=O (centres unmarked) [compound 83]

>  <IC50>
> 1000 nM

$$$$
>  <MOLECULE>
COc1cc2c(cc1NC1CCN(C)CC1)CC(Cc1ncccc1C(F)(F)F)C2=O (centres unmarked)

>  <IC50>
> 1000 nM

$$$$
>  <MOLECULE>
COc1cc2c(cc1N1CCOCC1)CC(Cc1cncc(C(O)(C(F)(F)F)C(F)(F)F)c1)C2=O (centres unmarked)

>  <IC50>
< 500 nM

$$$$
>  <MOLECULE>
COc1cc2c(cc1N1CCC(C)CC1)CC(Cc1ncccc1C(F)(F)F)C2=O (centres unmarked)

>  <IC50>
> 1000 nM

$$$$
>  <MOLECULE>
COc1cc2c(cc1N1CCOCC1)CC(Cc1cc(C(F)(F)F)cnc1Cl)C2=O (centres unmarked)

>  <IC50>
> 1000 nM

$$$$
>  <MOLECULE>
COc1cc2c(cc1N1CCN(C)C(C)C1)CC(Cc1ccc(Cl)cc1F)C2=O (centres unmarked)

>  <IC50>
> 10000 nM

$$$$

# ---- query molecule ----
Fill in: RORγt (Homo sapiens) IC50 for COc1cc2c(cc1N1CCOCC1)CC(Cc1cccc(C(F)(F)F)c1F)C2=O (centres unmarked) = > 1000 nM
